- system: Mineralocorticoid receptor (Homo sapiens)
- Sequence (P08235 whole entry): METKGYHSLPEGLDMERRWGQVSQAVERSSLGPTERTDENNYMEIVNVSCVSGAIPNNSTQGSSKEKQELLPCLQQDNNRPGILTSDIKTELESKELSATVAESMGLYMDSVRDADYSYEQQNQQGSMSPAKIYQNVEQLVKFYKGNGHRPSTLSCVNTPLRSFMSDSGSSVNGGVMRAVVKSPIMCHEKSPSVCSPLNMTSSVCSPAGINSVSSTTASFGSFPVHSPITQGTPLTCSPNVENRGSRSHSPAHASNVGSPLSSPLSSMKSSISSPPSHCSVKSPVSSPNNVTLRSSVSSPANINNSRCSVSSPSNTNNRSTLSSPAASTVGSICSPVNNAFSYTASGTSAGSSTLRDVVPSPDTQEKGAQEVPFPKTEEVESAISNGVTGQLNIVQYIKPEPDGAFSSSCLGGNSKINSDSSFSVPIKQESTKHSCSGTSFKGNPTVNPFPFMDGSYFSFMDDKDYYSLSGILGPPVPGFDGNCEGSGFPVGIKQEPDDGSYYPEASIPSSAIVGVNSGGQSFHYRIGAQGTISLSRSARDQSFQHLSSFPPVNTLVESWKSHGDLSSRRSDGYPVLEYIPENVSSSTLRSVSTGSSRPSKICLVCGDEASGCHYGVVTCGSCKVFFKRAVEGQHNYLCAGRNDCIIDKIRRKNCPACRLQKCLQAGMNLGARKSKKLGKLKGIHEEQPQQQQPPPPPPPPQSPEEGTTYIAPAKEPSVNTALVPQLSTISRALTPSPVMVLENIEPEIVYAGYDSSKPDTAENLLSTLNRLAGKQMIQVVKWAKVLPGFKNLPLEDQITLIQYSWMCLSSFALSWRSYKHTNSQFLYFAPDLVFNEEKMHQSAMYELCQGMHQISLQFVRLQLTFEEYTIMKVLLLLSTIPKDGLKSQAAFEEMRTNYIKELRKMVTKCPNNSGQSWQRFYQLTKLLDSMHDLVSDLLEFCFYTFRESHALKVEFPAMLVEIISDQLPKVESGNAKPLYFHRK
Listing of IC50 toward Mineralocorticoid receptor (Homo sapiens), each taken from a published source.
Answers are plain numbers, in nM.

// worked examples, IC50 included
COc1ccc(F)cc1C(C)(C)CC(O)(Cc1cc2cnccc2[nH]1)C(F)(F)F (stereo not drawn)	320
CC[C@@H](Cn1ccc2ccccc21)NS(=O)(=O)c1c(N)cc(Cl)cc1Cl	510
CCC(C)(C)C(O)(Cc1cc2ccncc2[nH]1)CC(C)(C)c1cc(F)ccc1OC (stereo not drawn)	1900

For every item in the list below, what is its measured IC50?
1. CC[C@@H](Cn1cc(C)c2ccccc21)NS(=O)(=O)c1c(N)cc(Cl)cc1Cl
2. COc1cccc2c1-c1ccc(NS(C)(=O)=O)c(Br)c1C(c1ccccc1)O2 (stereo not drawn)
3. COC(=O)C1=C(C)NC(C)=C(C(=O)OC(C)(C)C)C1c1ccccc1C (stereo not drawn)
4. Cc1cc(C)c(S(=O)(=O)NC(Cc2c[nH]c3c(C#N)cccc23)C(F)(F)F)c(C)c1 (stereo not drawn)
5. COC(=O)C1=C(C)NC(C)=C(C(=O)OC(C)(C)C)C1c1ccccc1Cl (stereo not drawn)
6. CC1=C(C#N)C(c2ccc(F)cc2Cl)C(C(=O)OC(C)(C)C)=C(C)N1 (racemic)

## Result
1. 260
2. 454
3. 208
4. 70
5. 621
6. 59

For every item in the list below, what is its measured IC50?
1. COc1ccc(F)cc1C(C)(C)CC(O)(Cc1cc2ccncc2s1)C(F)(F)F (stereo not drawn)
2. CC(C)(CC(O)(Cn1ccc(=O)c2ccccc21)C(F)(F)F)c1ccccc1O (stereo not drawn)
3. COc1cc(CNC(=O)[C@@]2(Cc3cccc(F)c3)OC(=O)N([C@H](C)c3ccccc3)C2=O)cc(OC)c1
4. C[C@H](c1ccccc1)N1C(=O)N[C@](Cc2ccccc2)(C(=O)N2CCc3ccccc3C2)C1=O
5. CC(Cc1c[nH]c2ccccc12)NS(=O)(=O)c1cc(Cl)c(Cl)cc1Cl (stereo not drawn)

## Result
[220, 450, 280, 990, 1000]

For every item in the list below, what is its measured IC50?
1. C[C@H](c1ccccc1)N1C(=O)O[C@](Cc2ccccc2)(C(=O)N[C@@H]2C[C@H]2c2ccccc2)C1=O
2. CCN1C(C)=C(C#N)C(c2ccc(F)cc2F)C(C(=O)OC(C)(C)C)=C1C (stereo not drawn)
3. COc1ccc(-c2ccccc2)cc1C(C)(C)CC(O)(Cc1cc2ccncc2[nH]1)C(F)(F)F (stereo not drawn)
4. C[C@H](c1ccccc1)N1C(=O)O[C@](Cc2ccccc2)(C(=O)Nc2ccc(F)cc2)C1=O
5. O=S(=O)(NC(Cc1c[nH]c2ccccc12)C(F)(F)F)c1c(Cl)cc(Cl)cc1Cl (stereo not drawn)
6. CC(C)(C[C@@](O)(Cc1cc2cnccc2[nH]1)C(F)(F)F)c1cc(F)ccc1O
7. Cc1noc(=O)c2ccc(NC(=O)C(O)(CC(C)(C)c3cc(F)ccc3O)C(F)(F)F)cc12 (stereo not drawn)
8. C[C@H](c1ccccc1)N1C(=O)O[C@](Cc2ccccc2)(C(=O)Nc2ccc3ccccc3c2)C1=O

## Result
250
1620
480
100
80
220
41
600

For every item in the list below, what is its measured IC50?
1. COC(=O)C1=C(C)NC(C)=C(C#N)C1c1ccc(F)cc1Cl (stereo not drawn)
2. COC(=O)C1=C(C(F)(F)F)NC(C)=C(C#N)C1c1ccc(F)cc1Cl (stereo not drawn)
3. COC(=O)C1=C(C)NC(C)=C(C(=O)OC(C)(C)C)C1c1cccc(F)c1 (stereo not drawn)
4. Cc1cc(C)c(S(=O)(=O)NC(Cn2ccc3ncccc32)C(F)(F)F)c(C)c1 (stereo not drawn)
5. Cc1cc(C)c(S(=O)(=O)NC(Cc2c[nH]c3c(C)cccc23)C(F)(F)F)c(C)c1 (stereo not drawn)

## Result
1: 92; 2: 52; 3: 1390; 4: 220; 5: 90

For every item in the list below, what is its measured IC50?
1. CCOc1cccc2c1-c1ccc(NS(C)(=O)=O)cc1C(c1ccccc1)O2 (stereo not drawn)
2. C[C@H](c1ccccc1)N1C(=O)O[C@](Cc2ccccc2)(C(=O)NCCc2ccncc2)C1=O
3. C[C@H](c1ccccc1)N1C(=O)O[C@](Cc2ccccc2)(C(=O)Nc2ccccc2Cl)C1=O
4. Cc1cc(C)c(S(=O)(=O)NC(Cc2c[nH]c3ccc(C)cc23)C(F)(F)F)c(C)c1 (stereo not drawn)

## Result
1. 893
2. 4000
3. 1000
4. 90
